Test system: Human alphaherpesvirus 1
Test: Antiviral activity against HSV1 KOS in human HEL cells assessed as reduction of virus-induced cytopathogenicity
Assay type: functional
Settings: Human alphaherpesvirus 1, KOS
assayEndpoint: MIC

[[record]]
moleculesmiles = "C=CCNC(=S)Nc1ccc(-c2n[nH]c(=S)n2CCc2ccccc2)cc1"
valuemeasured = "> 80 µg/mL"

[[record]]
moleculesmiles = "CCCCCCNC(=S)Nc1ccc(-c2n[nH]c(=S)n2-c2ccccc2)cc1"
valuemeasured = "> 16 µg/mL"

[[record]]
moleculesmiles = "CCn1c(COc2ccc(NC(=S)Nc3ccccc3)cc2)n[nH]c1=S"
valuemeasured = "> 80 µg/mL"

[[record]]
moleculesmiles = "C=CCNC(=S)Nc1ccc(-c2nnc(SCc3ccc(Cl)cc3Cl)n2C)cc1"
valuemeasured = "> 16 µg/mL"

[[record]]
moleculesmiles = "Nc1nc2c(ncn2COCCO)c(=O)[nH]1"
valuemeasured = "0.384 µg/mL"

[[record]]
moleculesmiles = "CCn1c(COc2ccc(N)cc2)n[nH]c1=S"
valuemeasured = "> 400 µg/mL"

